# Test system: A673/TR/shEF
# measurementProtocol: cell viability (LOESS-normalised, relative to median of negative controls) (log2 ratio); higher = more viable cells (less compound effect), active = hit call of the paper (over 3 MAD below the median)
# experimentalParameters: 0.25 µM; library screen: screen1; EWS-FLI1 expression: high (no doxycycline); treatment time: 72 h
Among all 3,200 compounds or so, about 300 (9.4%) showed activity. The entries come from a sample that favours actives as a whole.
Sorting guide: entries reporting cell viability (log2) beneath 0.1 go in the YES pile, the rest go in the NO pile.

INSERT INTO measurements (compound, category) VALUES
  ('CCCc1occc(=O)c1C=CO', 'YES'),
  ('Cc1nnc(SCC(=O)N2c3ccccc3-c3c(ssc3=S)C2(C)C)s1', 'YES');

Incoming: Say whether its cell viability (log2) is strictly beneath 0.1. Entry: CC1(C)CC[C@]2(C)CC[C@]3(C)C(=CC[C@@H]4[C@@]5(C)CC[C@H](O)C(C)(C)[C@@H]5CC[C@]43C)[C@@H]2C1
Outgoing: YES

Incoming: Say whether its cell viability (log2) is strictly beneath 0.1. Entry: CC(=O)Oc1ccc(-c2coc3cc(OC(C)=O)ccc3c2=O)cc1
Outgoing: NO

Incoming: Determine whether this compound shows cell viability (log2) lower than 0.1 (ties excluded): CCC(=O)OC1[C@@H]2CC3=C4CC(=O)O[C@@H](c5ccoc5)[C@]4(C)CCC3[C@@](C)(C2=O)[C@@H](CC(=O)OC)C1(C)C (some centres undefined)
Outgoing: YES

Incoming: Record COc1ccc(-c2coc3c(OC)c(OC)cc(OC)c3c2=O)cc1 : is its cell viability (log2) strictly below 0.1?
Outgoing: YES

Incoming: Is 0.1 strictly greater than the compound's reported cell viability (log2)? compound: CN(C)c1ccc(O)c2c1C[C@H]1C[C@H]3[C@H](N(C)C)C(=O)C(C(N)=O)=C(O)[C@@]3(O)C(=O)C1=C2O
Outgoing: YES

Incoming: Hi there! Is cell viability (log2) for CN(C)CCCN1c2ccccc2Sc2ccccc21 below 0.1, do you know?
Outgoing: YES

----------
# System: A673/TR/shEF
# measurementProtocol: cell viability (LOESS-normalised, relative to median of negative controls) (log2 ratio); higher = more viable cells (less compound effect), active = hit call of the paper (over 3 MAD below the median)
# experimentalParameters: 2.8 µM; library screen: screen3; EWS-FLI1 expression: low (doxycycline-induced shRNA knockdown); treatment time: 72 h
Out of some 3,200 compounds screened, about 300 (9.4%) showed activity. What follows is part of a selection rich in actives, with near analogues and random picks from the rest.
Allowed answers: active, inactive

Below, 10 compounds whose answers are already recorded.
INSERT INTO measurements (compound, targetorsystem, category) VALUES
  ('COc1ccc2nc([S+]([O-])Cc3ncc(C)c(OC)c3C)[nH]c2c1 (stereo not given)', 'A673/TR/shEF', 'inactive'),
  ('COc1ccc2nc([S@@+]([O-])Cc3ncc(C)c(OC)c3C)[nH]c2c1', 'A673/TR/shEF', 'inactive'),
  ('OCC1OC(O)C(O)C(O)C1O (stereo not given)', 'A673/TR/shEF', 'inactive'),
  ('CCN(CC)C(=S)SSC(=S)N(CC)CC', 'A673/TR/shEF', 'active'),
  ('CC(C)(O)[C@@H]1CC[C@](C)([C@H]2[C@@H](O)C[C@@]3(C)[C@@H]4C[C@H](O[C@@H]5O[C@H](CO)[C@@H](O)[C@H](O)[C@H]5O)[C@H]5C(C)(C)[C@@H](O[C@@H]6OC[C@@H](O)[C@H](O)[C@H]6O)CC[C@@]56C[C@@]46CC[C@]23C)O1', 'A673/TR/shEF', 'inactive'),
  ('Cn1cc(C2=C(c3ccc(Cl)cc3Cl)C(=O)NC2=O)c2ccccc21', 'A673/TR/shEF', 'inactive'),
  ('Cc1c(OCC(F)(F)F)ccnc1C[S+]([O-])c1nc2ccccc2[nH]1 (stereo not given)', 'A673/TR/shEF', 'inactive'),
  ('COc1cc([C@@H]2c3cc4c(cc3[C@@H](O[C@@H]3O[C@@H]5CO[C@@H](C)O[C@H]5[C@H](O)[C@H]3O)[C@H]3COC(=O)[C@H]23)OCO4)cc(OC)c1O', 'A673/TR/shEF', 'inactive'),
  ('CN(C)c1ccc(C(=C2C=CC(=[N+](C)C)C=C2)c2ccc(N(C)C)cc2)cc1', 'A673/TR/shEF', 'active'),
  ('Cc1cc(Nc2cc(CN3CCOCC3)c3nc(C)c(Cc4ccc(Cl)cc4F)n3n2)n[nH]1', 'A673/TR/shEF', 'inactive');

Incoming: What call does the record list for CNC[C@H](O)c1ccc(O)c(O)c1 ?
Outgoing: inactive

Incoming: What outcome does the record of this test show for FC(F)(F)c1ccc(/C=C/c2nc(COc3ccc(CCCCn4ccnn4)cc3)co2)cc1 ?
Outgoing: active

Incoming: How did this test come out for Nc1nc(Cl)nc2c1ncn2[C@@H]1O[C@H](CO)[C@@H](O)[C@@H]1F ?
Outgoing: inactive

----------
# System: A673/TR/shEF
# measurementProtocol: cell viability (LOESS-normalised, relative to median of negative controls) (log2 ratio); higher = more viable cells (less compound effect), active = hit call of the paper (over 3 MAD below the median)
# experimentalParameters: 0.25 µM; library screen: screen1; EWS-FLI1 expression: low (doxycycline-induced shRNA knockdown); treatment time: 72 h
Among all 3,200 compounds or so, about 300 (9.4%) showed activity. The entries come from a sample that favours actives as a whole.
For each record, write down the corresponding cell viability (log2).
One number for each entry.

For each of the compounds below, state cell viability (log2).
1. COc1ccc2c(=O)c(-c3cc4c(cc3OC)OCO4)coc2c1
2. N#C/C(=C\c1ccc(O)c(O)c1)C(N)=O
3. C[C@H]1C(=O)CC[C@@H]2[C@]1(C)CC[C@H]1[C@@]2(C)CC[C@@]2(C)[C@@H]3CC(C)(C)CC[C@]3(C)CC[C@]12C

Outgoing:
1: -0.078; 2: 0.0878; 3: 0.0462

Count: 3. Required value per item: cell viability (log2).
1. CC1(C)C(=O)CC[C@@]2(C)C1C[C@@H](O)[C@@]1(C)C3=CC(=O)O[C@@H](c4ccoc4)[C@]3(C)CCC21 (stereo partly drawn)
2. CC(=O)OCC(=O)[C@@]1(O)CC[C@H]2[C@@H]3CC[C@@H]4C[C@H](O)CC[C@]4(C)[C@H]3C(=O)C[C@@]21C
3. Cc1cc(OC(=O)c2c(C)cc(O)cc2O)cc(O)c1C(=O)O

Outgoing:
[0.0583, 0.0697, -0.00358]

Field: cell viability (log2). Fill in for each record below.
1. COc1ccc2c(c1)[C@@]1(C)CCC(=O)C[C@@H]1CC2
2. COc1cc(O)cc(OC)c1OC
3. CN(C)CCCn1cc(C2=C(c3c[nH]c4ccccc34)C(=O)NC2=O)c2ccccc21
4. C=CCNc1nc2ccccn2c(=O)c1/C=C1\SC(=S)N(CCc2ccccc2)C1=O
5. COc1cc2c(cc1OC)[C@@H]1C(=O)c3c(cc4c(c3O)C=CC(C)(C)O4)O[C@@H]1CO2

Outgoing:
[0.0238, 0.0156, 0.193, 0.0307, -0.000972]

Parameters: items (list). Returns: cell viability (log2) for each item.
1. O=C(O)c1cc2c(Cl)cc(Cl)cc2[nH]1
2. COc1cc(Cc2cnc(N)nc2N)cc(OC)c1OC
3. COc1ccc2c(c1)CCC1=CC(=O)CC[C@@]12C

Outgoing:
1. 0.0244
2. 0.184
3. 0.00881

Hey, quick one: what's cell viability (log2) for each of these?
1. COc1ccc2cc3[n+](cc2c1OC)CCc1cc2c(cc1-3)OCO2
2. O=c1c(O)c(-c2ccc(O)c(O)c2)oc2cc(O)cc(O)c12
3. Cc1c(NC(=O)Nc2ccc3ccccc3c2)c(=O)n(-c2ccccc2)n1C
4. CC1(C)O[C@H]2[C@H](O)C[C@](O)(C(N)=O)C[C@H]2O1

Outgoing:
[0.0916, 0.018, 0.113, -0.00566]

Hi, could you look up cell viability (log2) for each item in my list?
1. Nc1ncnc2c1ncn2[C@@H]1O[C@H](CO)[C@@H](O)[C@H]1O
2. COc1ccccc1NC(=O)C1=C(C)NC(=O)NC1c1cccc(Cl)c1 (stereo not drawn)
3. CC(=O)CCC(=O)O
4. O=C(Oc1cc(O)c2c(c1)O[C@H](c1cc(O)c(OC(=O)c3cc(O)c(O)c(O)c3)c3c(O)c(=O)cc(C4Oc5cc(O)cc(O)c5C[C@H]4O)cc13)[C@H](O)C2)c1cc(O)c(O)c(O)c1 (stereo partly drawn)
5. COC(=O)c1c(C)c2c(c(C)c1OC(C)=O)OC(=O)c1c(C)c(Cl)c(OC(C)=O)c(Cl)c1O2

Outgoing:
[0.0646, 0.0367, -0.0377, 0.0559, 0.0229]

Please look at the items below and tell me cell viability (log2) for each one, in order.
1. COc1c(CC(=O)c2cc3c(cc2O)OC(C)(C)C(O)C3)ccc2c1C=CC(C)(C)O2 (stereo not drawn)
2. COC(=O)c1c(Cl)c(Cl)c(C(=O)OC)c(Cl)c1Cl
3. CN([C@@H](Cc1ccc(OS(=O)(=O)c2cccc3cnccc23)cc1)C(=O)N1CCN(c2ccccc2)CC1)S(=O)(=O)c1cccc2cnccc12
4. Cn1cc(C2=C(c3cn(CCCSC(=N)N)c4ccccc34)C(=O)NC2=O)c2ccccc21
5. COc1ccc(-c2cc(=O)c3c(OC)cc(OC)cc3o2)cc1

Outgoing:
1. -0.00504
2. 0.0707
3. -0.0263
4. 0.0259
5. 0.0681

Each compound below has a reported value. Please supply its cell viability (log2).
1. O=C1C=CC2=C3c4cc(O)c(O)cc4CC3(O)COC2=C1 (stereo not drawn)
2. COc1cc(OC)c2c(=O)c(-c3ccccc3)coc2c1
3. Cc1occc(=O)c1C=CO
4. COc1ccc2c(c1)O[C@H]1c3ccc(O)cc3OC[C@@H]21

Outgoing:
1: 0.195; 2: 0.0621; 3: 0.0191; 4: 0.129

Incoming: Name the recorded cell viability (log2) of the item COc1cc2c(cc1OC)-c1cc3ccc(OC)c(OC)c3c[n+]1CC2 in your answer.
Outgoing: 0.0361
